Experiment: Evaluation of stability in liver microsome
Details: mouse liver microsome, 1 μM, 37° C. for 30 minutes
result-type: Remaining (%)

Ask: Data request, read-out Remaining (%), for COCc1ccc(NC(=O)c2c(C#CCC3CCOCC3)n(C3(C)CC3)c3ncnc(N)c23)cc1
Result: 57

Ask: Data request, read-out Remaining (%), for COCc1ccc(NC(=O)c2c(C#Cc3csc(C)n3)n(C3(C)CC3)c3ncnc(N)c23)cc1
Result: 69

Ask: Data request, read-out Remaining (%), for COCc1ccc(NC(=O)c2c(C#Cc3cncc(F)c3)n(C3(C)CC3)c3ncnc(N)c23)cc1
Result: 66

Ask: Data request, read-out Remaining (%), for COCc1ccc(NC(=O)c2c(C#CCC3(O)CCOCC3)n(C3(C)CC3)c3ncnc(N)c23)cc1
Result: 68

Ask: Data request, read-out Remaining (%), for COCc1ccc(NC(=O)c2c(C#CCC3CCCCC3)n(C3(C)CC3)c3ncnc(N)c23)cc1
Result: 80

Ask: Data request, read-out Remaining (%), for COCc1ccc(NC(=O)c2cn(C3(CF)CC3)c3ncnc(N)c23)cc1
Result: 66

Ask: Data request, read-out Remaining (%), for COCc1ccc(NC(=O)c2c(C#Cc3ccc[nH]3)n(C3(C)CC3)c3ncnc(N)c23)cc1
Result: 68

Ask: Data request, read-out Remaining (%), for C=Cc1c(C(=O)Nc2ccc(COC)cc2)c2c(N)ncnc2n1C1(C)CC1
Result: 79

Ask: Data request, read-out Remaining (%), for COCc1ccc(NC(=O)c2c(C#Cc3cnn(C)c3C)n(C3(C)CC3)c3ncnc(N)c23)cc1
Result: 61

Ask: Data request, read-out Remaining (%), for COCc1ccc(NC(=O)c2c(C#Cc3ccc(Cl)nc3)n(C3(C)CC3)c3ncnc(N)c23)cc1
Result: 72

Ask: Data request, read-out Remaining (%), for COCc1ccc(NC(=O)c2cn(C3(C)CC3)c3ncnc(N)c23)cc1
Result: 73

Ask: Data request, read-out Remaining (%), for COCc1ccc(NC(=O)c2c(C(C)O)n(C3(C)CC3)c3ncnc(N)c23)cc1 (stereo not shown)
Result: 83

Ask: Data request, read-out Remaining (%), for COCc1ccc(NC(=O)c2c(-c3ccc(NC(C)=O)nc3)n(C3(C)CC3)c3ncnc(N)c23)cc1
Result: 68

Where do the numbers come from? From patent US11046696B2.
